# MIC annotations
Test system: Escherichia coli
experimental-details: Antibacterial activity against Escherichia coli K 901
Assay type: functional
endpoint-name: MIC (µg/mL)

| chemical-string | prefix-operator | reported |
| --- | --- | --- |
| c1ccc(Cn2nc(C3CCNCC3)cc2-c2ccc(Oc3ccccc3)cc2)cc1 | = | 4 |
| Clc1cccc(-n2nc(C3CCNCC3)cc2-c2ccc3ccccc3c2)c1 | = | 4 |
| CO[C@@H]1[C@@H](OC(N)=O)[C@@H](O)[C@H](Oc2ccc3c(O)c(NC(=O)c4ccc(O)c(CC=C(C)C)c4)c(=O)oc3c2C)OC1(C)C | = | 0.5 |
| COc1ccc(-c2cc(C3CCNCC3)[nH]n2)cc1 | > | 128 |
| c1ccc(Oc2ccc(-c3cc(C4CCNCC4)n[nH]3)cc2)cc1 | = | 64 |

---

measured-on: Nucleic Acid
experimental-details: Iinhibitory activity against human DNA topoisomerase II
Assay type: functional
endpoint-name: IC50

| compound | reported |
| --- | --- |
| C[C@@H]1CN(c2c(F)c(N)c3c(=O)c(C(=O)O)cn(C4CC4)c3c2F)C[C@H](C)N1 [SPARFLOXACIN] | > 400 µg/mL |
| CO[C@@H]1[C@@H](OC(N)=O)[C@@H](O)[C@H](Oc2ccc3c(O)c(NC(=O)c4ccc(O)c(CC=C(C)C)c4)c(=O)oc3c2C)OC1(C)C [NOVOBIOCIN] | > 400 µg/mL |
| Clc1cccc(-n2nc(C3CCNCC3)cc2/C=C/c2c[nH]c3ccc(Cl)cc23)c1 | > 400 µg/mL |
